Overview of recorded IC50 for various compounds
# target: Melanin-concentrating hormone receptor 2 (Homo sapiens)
# Sequence (Q969V1 whole entry): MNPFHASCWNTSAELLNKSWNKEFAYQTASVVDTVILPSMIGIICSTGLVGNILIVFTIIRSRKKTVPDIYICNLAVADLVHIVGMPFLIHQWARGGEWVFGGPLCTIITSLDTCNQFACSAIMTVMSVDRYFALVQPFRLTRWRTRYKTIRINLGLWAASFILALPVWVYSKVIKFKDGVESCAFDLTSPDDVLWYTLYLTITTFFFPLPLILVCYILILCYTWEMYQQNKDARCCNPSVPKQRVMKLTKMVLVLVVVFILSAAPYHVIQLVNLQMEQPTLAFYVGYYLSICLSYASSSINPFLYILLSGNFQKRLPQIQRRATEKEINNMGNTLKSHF
# measurement-notes: Binding affinity against human Melanin-concentrating hormone receptor 2 stably transfected CHO cells was determined using [125I]MCH as radioligand
# Assay type: cell-based

Illustrative cases are given below, each with its answer.
O=C(Nc1ccc(Oc2ccccc2)cc1)Nc1ccc(C(=O)NCCN2CCN(Cc3ccccc3)CC2)cc1 | 2.88 µM
CCN(CC)CCNC(=O)c1ccc(NC(=O)Nc2ccc(C(F)(F)F)cc2)cc1OC | > 100 µM
COc1cc(NC(=O)c2ccc(-c3ccccc3)cc2)ccc1C(=O)NCCCN(C)C | > 100 µM
COc1cc(NC(=O)Nc2cccc(Oc3ccccc3)c2)ccc1C(=O)NCCCN1CCCCC1 | > 100 µM

Next, consider the following compound.
What the record says about `CCN(CC)CCNC(=O)c1ccc(NC(=O)Nc2ccc(OC(F)(F)F)cc2)cc1` : IC50 is > 100 µM

====

Overview of reported IC50 across a group of compounds:
# target: Melanin-concentrating hormone receptor 1 (Homo sapiens, UniProt Q99705)
# Sequence (Q99705 whole entry): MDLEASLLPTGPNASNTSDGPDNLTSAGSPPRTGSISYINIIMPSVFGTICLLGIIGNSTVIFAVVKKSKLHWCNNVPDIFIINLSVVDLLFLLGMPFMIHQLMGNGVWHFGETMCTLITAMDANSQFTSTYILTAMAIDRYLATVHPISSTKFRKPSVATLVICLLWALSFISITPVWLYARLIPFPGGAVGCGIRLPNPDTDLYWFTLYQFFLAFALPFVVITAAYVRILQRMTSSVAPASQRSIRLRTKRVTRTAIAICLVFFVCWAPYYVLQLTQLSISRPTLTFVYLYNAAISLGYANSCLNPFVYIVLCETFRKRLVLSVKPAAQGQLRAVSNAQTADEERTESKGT
# measurement-notes: Binding affinity against human Melanin-concentrating hormone receptor 1 stably transfected CHO cells was determined using [125I]MCH as radioligand
# Assay type: cell-based
Output spec: scalar in nM, unitless text.

Consider the worked cases shown below.
COc1cc(NC(=O)c2ccc(Oc3ccccc3)cc2)ccc1C(=O)NCCCN(C)C | 1920
CCN1CCCC1CNC(=O)c1ccc(NC(=O)Nc2ccc(Oc3ccccc3)cc2)cc1 (stereo not given) | 250
CCN(CC)CCNC(=O)c1ccc(NC(=O)Nc2ccc(OC(F)(F)F)cc2)cc1 | 60

Lab note: `CCN(CC)CCNC(=O)c1ccc(NC(=O)c2ccc(Oc3ccccc3)cc2)cc1OC` gave IC50 of 1970

====

# measurement-notes: Inhibitory activity against 5-hydroxytryptamine 2C receptor
pIC50 values, listed per item
In plain terms, pIC50 is the concentration in mol/L turned into minus its base-10 logarithm.

COc1cc(NC(=O)Nc2cccc(Oc3ccccc3)c2)ccc1C(=O)NCCCN1CCOCC1 | 5.89

Here is another molecule to look at.
The value of pIC50 measured for the molecule `CCN(CC)CCNC(=O)c1ccc(NC(=O)Nc2ccc(OC(F)(F)F)cc2)cc1OC` turned out to be 6.51

====

# target: UniProt Q99705
# measurement-notes: Binding affinity against human Melanin-concentrating hormone receptor 1 stably transfected CHO cells was determined using scintillation proximity assay (SPA)
# Assay type: cell-based
observable: pIC50
# pIC50 is unitless: minus log10 of the molar concentration; print number only

Some solved cases for reference:
CCN(CC)CCNC(=O)c1ccc(NC(=O)Nc2ccc(F)cc2)cc1OC | 4.80
CCN(CC)CCNC(=O)c1ccc(NC(=O)Nc2cccc(OC(F)(F)F)c2)cc1OC | 5.60
CCN(CC)CCNC(=O)c1ccc(NC(=O)Nc2ccc(Cl)c(Cl)c2)cc1OC | 6.15

Now for another entry.
pIC50 reported for this compound `CCN(CC)CCNC(=O)c1ccc(NC(=O)Nc2ccc(OC(F)(F)F)cc2)cc1OC` : 6.82

====

Quick reference: pIC50 of the listed items.
# measurement-notes: Inhibitory activity against Histamine H2 receptor
Convention used: pIC50 is expressed as -log10 of the molar concentration.

The measured pIC50 associated with `CCN(CC)CCNC(=O)c1ccc(NC(=O)Nc2ccc(OC(F)(F)F)cc2)cc1OC` reads 5.66

// field: pIC50; key: `COc1cc(NC(=O)Nc2cccc(Oc3ccccc3)c2)ccc1C(=O)NCCCN1CCOCC1` ; value = 5.74

====

# target: Melanin-concentrating hormone receptor 1 (Homo sapiens, UniProt Q99705)
# measurement-notes: Binding affinity against human Melanin-concentrating hormone receptor 1 stably transfected CHO cells was determined using scintillation proximity assay (SPA)
# Type: cell-based
pIC50: recorded values
# pIC50: negative log10 of molar concentration; output just the value

CCN(CC)CCNC(=O)c1ccc(NC(=O)Nc2cccc(C(F)(F)F)c2)cc1OC | 5.10

The reported pIC50 of the compound `CCN(CC)CCNC(=O)c1ccc(NC(=O)Nc2ccc(SC(F)(F)F)cc2)cc1OC` was 6.70

====

Examples of compounds with documented log10 of IC50 follow.
# target: Melanin-concentrating hormone receptor 1 (Homo sapiens)
# measurement-notes: Binding affinity against human Melanin-concentrating hormone receptor 1 stably transfected CHO cells was determined using [125I]MCH as radioligand
# Format: cell-based
All values: log10 IC50 [nM].

CCN(CC)CCNC(=O)c1ccc(NC(=O)Nc2ccc(C(F)(F)F)cc2)cc1OC | 1.30

Record for `CCOc1cc(NC(=O)Nc2ccc(Oc3ccccc3)cc2)ccc1C(=O)NCCN(CC)CC` under target or system Melanin-concentrating hormone receptor 1 (Homo sapiens): log10 of IC50 reported as 2.38

Record `COc1cc(NC(=O)c2ccc(-c3ccccc3)cc2)ccc1C(=O)NCCN(C)C` ; system Melanin-concentrating hormone receptor 1 (Homo sapiens); log10 of IC50 = 3.38

# lookup: `COc1cc(NC(=O)Nc2cccc(Oc3ccccc3)c2)ccc1C(=O)NCCCN1CCOCC1` on Melanin-concentrating hormone receptor 1 (Homo sapiens), log10 of IC50 = 1.85

Fill in: Melanin-concentrating hormone receptor 1 (Homo sapiens) log10 of IC50 for `COc1cc(NC(=O)c2ccc(-c3ccccc3)cc2)ccc1C(=O)NCCN1CCN(Cc2ccccc2)CC1` = 2.81

The reported Melanin-concentrating hormone receptor 1 (Homo sapiens) log10 of IC50 of `COc1cc(NC(=O)Nc2cccc(Oc3ccccc3)c2)ccc1C(=O)NCCCN1CCCCC1` is 1.30

The value of log10 of IC50 recorded for `COc1cc(NC(=O)Nc2ccc(-c3ccccc3)cc2)ccc1C(=O)NCCCN(C)C` when tested on Melanin-concentrating hormone receptor 1 (Homo sapiens) reads 3.17

Form field, log10 of IC50 with Melanin-concentrating hormone receptor 1 (Homo sapiens), item `COc1cc(NC(=O)c2ccc(-c3ccccc3)cc2)ccc1C(=O)NC1CCN(Cc2ccccc2)CC1` : 2.11

====

# target: Melanin-concentrating hormone receptor 1 (Homo sapiens)
# measurement-notes: Antagonistic activity against human Melanin-concentrating hormone receptor 1 stably transfected CHO cells was determined using IP3 assay
# Type: functional, cell-based
In this section we review reported pIC50 values for a set of compounds.
Please express pIC50 as -log10 of the molar concentration.

CCN(CC)CCNC(=O)c1ccc(NC(=O)c2ccc(Oc3ccccc3)cc2)cc1OC | 5.17
CCN(CC)CCNC(=O)c1ccc(NC(=O)Nc2ccc(OC(F)(F)F)cc2)cc1OC | 6.59
CCN1CCCC1CNC(=O)c1ccc(NC(=O)Nc2ccc(Oc3ccccc3)cc2)cc1OC (stereo unspecified) | 5.46
COc1cc(NC(=O)Nc2cccc(Nc3ccccc3)c2)ccc1C(=O)NCCCN1CCCCC1 | 7.60
CCN(CC)CCNC(=O)c1ccc(NC(=O)Nc2ccc(C(F)(F)F)cc2)cc1 | 6.77

Entry `COc1cc(NC(=O)Nc2cccc(Oc3ccccc3)c2)ccc1C(=O)NCCCN1CCCCC1` under Melanin-concentrating hormone receptor 1 (Homo sapiens) had pIC50 of 7.52

The value of pIC50 recorded for `CCOc1cc(NC(=O)Nc2ccc(Oc3ccccc3)cc2)ccc1C(=O)NCCN(CC)CC` when tested on Melanin-concentrating hormone receptor 1 (Homo sapiens) reads 5.71

Let me check: `CCN(CC)CCNC(=O)c1ccc(NC(=O)Nc2ccc(Oc3ccccc3)cc2)cc1OC` , system Melanin-concentrating hormone receptor 1 (Homo sapiens), measured pIC50 is 6.06

CCN1CCCC1CNC(=O)c1ccc(NC(=O)Nc2ccc(Oc3ccccc3)cc2)cc1 (stereo unspecified) on Melanin-concentrating hormone receptor 1 (Homo sapiens) gives pIC50 = 5.89

Per the reported Melanin-concentrating hormone receptor 1 (Homo sapiens) data, `COc1cc(NC(=O)Nc2ccc(Nc3ccccc3)cc2)ccc1C(=O)NCCCN1CCCCC1` has pIC50 of 5.84

The compound `COc1cc(NC(=O)Nc2cccc(Oc3ccccc3)c2)ccc1C(=O)NCCCN1CCOCC1` , tested on Melanin-concentrating hormone receptor 1 (Homo sapiens), showed pIC50 of 6.96

Entry `COc1cc(NC(=O)c2ccc(-c3ccccc3)cc2)ccc1C(=O)NCCCN(C)C` ; assay system Melanin-concentrating hormone receptor 1 (Homo sapiens); pIC50 recorded at 5.28

Entry `O=C(Nc1ccc(Oc2ccccc2)cc1)Nc1ccc(C(=O)NCCN2CCN(Cc3ccccc3)CC2)cc1` , tested on Melanin-concentrating hormone receptor 1 (Homo sapiens), has a reported pIC50 of 5.24

I looked up `CCN(CC)CCNC(=O)c1ccc(NC(=O)Nc2ccc(OC(F)(F)F)cc2)cc1` and its pIC50 for Melanin-concentrating hormone receptor 1 (Homo sapiens) was 6.60

For the compound `COc1cc(NC(=O)c2ccc(-c3ccccc3)cc2)ccc1C(=O)NCCN(C)C` , the measured pIC50 on Melanin-concentrating hormone receptor 1 (Homo sapiens) was 4.92

Entry `CCN(CC)CCNC(=O)c1ccc(NC(=O)Nc2ccc(C(F)(F)F)cc2)cc1OC` , Melanin-concentrating hormone receptor 1 (Homo sapiens) data, pIC50 value: 6.77

Where do the numbers come from? From ChEMBL document CHEMBL1137103.
